# target: NaV1.3 (Homo sapiens)
# Construct: expressed in transfected cells; host or cells: HEK293
# Sequence (Q9NY46 whole entry): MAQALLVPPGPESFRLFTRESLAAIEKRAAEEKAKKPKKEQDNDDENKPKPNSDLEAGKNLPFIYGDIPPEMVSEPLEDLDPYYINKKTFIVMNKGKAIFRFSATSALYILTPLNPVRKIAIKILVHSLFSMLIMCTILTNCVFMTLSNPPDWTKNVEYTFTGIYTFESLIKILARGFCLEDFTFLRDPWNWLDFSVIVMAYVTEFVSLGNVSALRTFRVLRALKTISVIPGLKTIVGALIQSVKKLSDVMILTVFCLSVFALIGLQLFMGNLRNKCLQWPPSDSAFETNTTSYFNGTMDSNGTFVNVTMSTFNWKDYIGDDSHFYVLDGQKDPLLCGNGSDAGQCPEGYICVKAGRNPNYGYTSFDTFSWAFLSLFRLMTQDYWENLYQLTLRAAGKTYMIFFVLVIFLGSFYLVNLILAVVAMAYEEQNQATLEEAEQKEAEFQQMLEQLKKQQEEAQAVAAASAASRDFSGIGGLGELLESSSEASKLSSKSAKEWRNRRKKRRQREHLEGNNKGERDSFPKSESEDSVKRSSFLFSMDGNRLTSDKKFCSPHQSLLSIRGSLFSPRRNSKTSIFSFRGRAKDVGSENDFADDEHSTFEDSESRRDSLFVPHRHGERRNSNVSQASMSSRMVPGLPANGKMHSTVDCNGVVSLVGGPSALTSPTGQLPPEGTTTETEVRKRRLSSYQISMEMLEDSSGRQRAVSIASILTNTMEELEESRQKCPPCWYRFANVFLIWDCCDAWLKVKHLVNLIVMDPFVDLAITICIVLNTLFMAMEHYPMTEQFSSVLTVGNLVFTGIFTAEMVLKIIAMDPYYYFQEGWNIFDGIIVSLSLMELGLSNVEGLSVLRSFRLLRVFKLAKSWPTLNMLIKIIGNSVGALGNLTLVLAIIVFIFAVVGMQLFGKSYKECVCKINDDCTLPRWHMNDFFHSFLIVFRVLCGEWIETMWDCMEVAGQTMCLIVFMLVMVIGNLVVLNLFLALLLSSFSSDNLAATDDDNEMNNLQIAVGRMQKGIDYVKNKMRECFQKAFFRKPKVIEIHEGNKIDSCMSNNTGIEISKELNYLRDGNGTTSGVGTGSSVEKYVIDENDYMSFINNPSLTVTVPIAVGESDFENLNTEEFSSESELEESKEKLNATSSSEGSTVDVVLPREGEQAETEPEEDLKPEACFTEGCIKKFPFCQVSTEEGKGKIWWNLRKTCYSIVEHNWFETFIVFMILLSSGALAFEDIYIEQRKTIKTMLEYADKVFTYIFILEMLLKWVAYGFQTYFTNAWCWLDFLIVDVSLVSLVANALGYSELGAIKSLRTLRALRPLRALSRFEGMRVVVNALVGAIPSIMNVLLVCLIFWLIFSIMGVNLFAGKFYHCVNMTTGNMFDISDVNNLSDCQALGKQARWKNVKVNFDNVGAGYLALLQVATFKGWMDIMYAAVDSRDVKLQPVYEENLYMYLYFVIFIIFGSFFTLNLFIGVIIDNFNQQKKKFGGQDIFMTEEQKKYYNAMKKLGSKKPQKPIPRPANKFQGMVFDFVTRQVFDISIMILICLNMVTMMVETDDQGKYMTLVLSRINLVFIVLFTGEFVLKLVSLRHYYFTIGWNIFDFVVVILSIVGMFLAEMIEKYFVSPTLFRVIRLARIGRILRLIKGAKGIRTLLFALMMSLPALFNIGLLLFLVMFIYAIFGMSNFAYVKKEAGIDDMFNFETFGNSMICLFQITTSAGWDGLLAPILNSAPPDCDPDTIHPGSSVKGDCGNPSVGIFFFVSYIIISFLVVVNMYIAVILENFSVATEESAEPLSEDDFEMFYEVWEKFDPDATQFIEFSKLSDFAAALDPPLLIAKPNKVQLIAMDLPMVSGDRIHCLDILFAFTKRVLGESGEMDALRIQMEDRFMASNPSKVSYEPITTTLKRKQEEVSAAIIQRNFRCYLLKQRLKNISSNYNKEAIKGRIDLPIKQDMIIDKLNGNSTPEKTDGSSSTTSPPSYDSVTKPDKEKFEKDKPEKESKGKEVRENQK
# experiment-description: VIPR optical membrane potential assay with electrical stimulation, NaV1.3
# Assay type: cell-based
# condition: Table 9, NaV 1.3 receptors
Measured IC50 of individual entries

Ask: Which measured IC50 value corresponds to "COc1ccc(N(C(=O)c2cnc(N3CCOCC3)nc2-c2ccccc2F)C(C)C)cc1" ?
Reply: > 10 µM

Ask: What IC50 value was documented for this molecule, "CC(C)N(C(=O)c1cnc(N2CCCCC2)nc1-c1ccccc1F)c1cccc(C(C)(C)C)c1" ?
Reply: 2 to 10 µM

Ask: For the molecule shown here, "COc1cccc(OC)c1CNc1ncc(C(=O)N(C)CC(C)C)c(-c2ccccc2F)n1" , give the reported IC50.
Reply: > 10 µM

Ask: For the molecule "O=C(c1cnc(N2CCCCC2)nc1-c1ccccc1F)N(Cc1cccc(-c2ccncc2)c1)C1CC1" , what IC50 is on record?
Reply: > 10 µM

Ask: Report IC50 for "CC(C)N(Cc1ccccc1)C(=O)c1cnc(N2CCOCC2)nc1-c1ccc(Oc2ccccc2)cc1" please.
Reply: > 10 µM

Ask: What does the data say about its IC50? Entry: "CC(C)N(C(=O)c1cnc(N2CCOCC2)nc1-c1ccccc1F)c1cccc2ccccc12"
Reply: > 10 µM

Ask: // returns reported IC50 for input O=C(c1cnc(N2CCC3CCCCC3C2)nc1-c1ccccc1F)N(Cc1cccc(-c2ccncc2)c1)C1CC1 (stereo not shown)
Reply: > 10 µM

Ask: Returns the measured IC50 for the input molecule. Input: O=C(c1cnc(N2CCOCC2)nc1-c1ccccc1F)N1CCCC(c2ccc(F)cc2)C1 (stereo not shown)
Reply: > 10 µM

Ask: IC50 for COc1cccc(N(C(=O)c2cnc(N3CCC4CCCCC4C3)nc2-c2ccccc2F)C2CC2)c1 (stereo not shown) ?
Reply: > 10 µM

Ask: What value of measured IC50 is listed for "CCCCNC(=O)c1cnc(N2CCOCC2)nc1-c1ccccc1F" ?
Reply: > 10 µM

Ask: IC50 for "O=C(c1cnc(N2CCSCC2)nc1-c1ccccc1F)N(Cc1ccc2c(c1)CCO2)C1CC1" ?
Reply: 2 to 10 µM

Ask: What does the record list as IC50 for "COc1cccc(CN(C(=O)c2c(C)nc(N3CCOCC3)nc2-c2ccccc2F)C(C)C)c1" ?
Reply: 2 to 10 µM

Ask: Find the recorded IC50 belonging to "CN1CCN(c2ncc(C(=O)N(Cc3ccc(C(C)(C)C)cc3)C3CC3)c(-c3ccccc3F)n2)CC1" and report it.
Reply: > 10 µM

Ask: Form field: reported IC50 of "CCN(Cc1cccc(C)c1)C(=O)c1cnc(N2CCOCC2)nc1-c1ccc(C#N)cc1"
Reply: > 10 µM

Ask: // IC50 lookup, key: "CC(C)N(Cc1ccccc1)C(=O)c1cnc(N2CCCCC2)nc1-c1ccccc1Cl"
Reply: 2 to 10 µM

Ask: Please look up its IC50: "O=C(c1cnc(N2CCCCC2)nc1-c1ccccc1F)N(Cc1ccc2c(c1)CCO2)C1CC1"
Reply: 2 to 10 µM
